experiment-description: photoluminescence quantum yield (fraction); solvent given as SMILES
particulars: in CCCCCC
# reported photoluminescence quantum yield; entries follow
quantity-kind: photoluminescence quantum yield

- COc1ccc(N(c2ccc(OC)cc2)c2ccc(-c3ccc4c(c3)C(=O)c3ccccc3C4=O)cc2)cc1: 0.265
- CCCCCCCCC1(CCCCCCCC)c2cc(-c3ccc(C=C4C(=O)c5ccccc5C4=O)cc3)ccc2-c2ccc(-c3ccc(C=C4C(=O)c5ccccc5C4=O)cc3)cc21: 0.007
- Cc1cc(N(C)C)cc(C)c1/C=C/C=C/c1ccc(C#N)cc1: 0.043
- CCC1=C(C)C2=Cc3c4ccccc4c4n3[B-](c3ccc5ccc6cccc7ccc3c5c67)(Oc3ccccc3-4)[N+]2=C1C (stereo not given): 0.72
- CCCCCCC(CCCCCC)N1C(=O)c2cccc3c(-c4ccc(-c5ccc(OC)cc5)cc4)ccc(c23)C1=O: 0.5
- CCCSc1ccc2n1[B-](F)(F)[N+]1=CC=CC1=C2c1ccccc1: 0.03
- COc1ccc2n1[B-](F)(F)[N+]1=CC=CC1=C2c1ccccc1: 0.01
- C(=C\c1cnccn1)/c1ccc2nccnc2c1: 0.001
- CC1=CC(C)=[N+]2C1=C(c1c3ccccc3c(C)c3ccccc13)c1c(C)cc(C)n1[B-]2(F)F: 0.91
- CCCCCCCCCCCCCCCCOc1cc(C#Cc2ccc3ccccc3c2)c(OCCCCCCCCCCCCCCCC)cc1C#Cc1ccc(C=C(C#N)C#N)cc1: 0.87
- CN(C)c1ccc(/C=C/C=C/c2nc3ccccc3o2)cc1: 0.0176
- COc1cccc(-c2c3ccccc3c3n2[B-](F)(F)[N+]2=Cc4c5ccccc5c(-c5cccc(OC)c5)n4[B-](F)(F)[N+]2=C3)c1: 0.34
- CCN(CC)c1ccc2ccc(=O)oc2c1: 0.85
- COc1ccc(-c2sc3c(-c4ccc(OC)cc4)c4n(c3c2-c2ccc(OC)cc2)[B-](F)(F)[N+]2=Cc3c(-c5ccc(OC)cc5)c5sc(-c6ccc(OC)cc6)c(-c6ccc(OC)cc6)c5n3[B-](F)(F)[N+]2=C4)cc1: 0.46
- N#Cc1ccc(-n2cccc2)cc1: 0.077
- O=c1oc2c(ccc3ccccc32)nc1-c1ccccc1: 0.32
- COc1ccc(-c2cc3ccc4cc(-c5ccc(OC)cc5)cc5ccc(c2)c3c45)cc1: 0.04
- CC(C)[Si](C#Cc1c2ccccc2c(C#C[Si](C(C)C)(C(C)C)C(C)C)c2nc3c(ccc4ccccc43)nc12)(C(C)C)C(C)C: 0.51
- COC1=[N+]2C(=C(c3ccccc3)c3ccc(OC)n3[B-]2(F)F)C=C1: 0.12
- [C-]#[N+]c1ccc(-c2ccc(N(C)C)cc2)cc1: 0.66
- CCC1=C(C)C2=Cc3cscc3B(O)N2C1=O: 0.18
- CCCSc1ccc2n1[B-](F)(F)[N+]1=C(SC#N)C=CC1=C2c1ccccc1: 0.18
- CC1=CC(C)=[N+]2C1=C(c1ccc(-c3c4ccccc4c(-c4ccccc4)c4ccccc34)cc1)c1c(C)cc(C)n1[B-]2(F)F: 0.7
- CC1=CC(C)=[N+]2C1=C(c1c3ccccc3cc3ccccc13)c1c(C)cc(C)n1[B-]2(F)F: 0.99
- F[B-]1(F)n2c(c3cccc4cccc2c43)=Nc2cccc(Cl)[n+]21: 0.99
- COC1=[N+]2C(=C(c3ccccc3)c3ccc(OC)n3[B-]2(F)F)C=C1SC#N: 0.15
- COc1ccccc1-c1nc(-c2ccc(C(F)(F)F)cc2)n(-c2ccc(C)cc2)c1-c1ccccc1OC: 0.49
- Cc1ccc(-n2c(C)ccc2C)cc1: 0.006
- COc1ncccc1B(O)O: 0.502
- O=C1c2ccccc2C(=O)c2cc(-c3ccc(N(c4ccccc4)c4ccccc4)cc3)ccc21: 0.392
- CCCCc1cc(CCCC)c2ccc3c(CCCC)cc(CCCC)c4ccc1c2c43: 0.55
- COC(=O)C(Cc1ccc2oc(-c3ccc4c(c3)c3ccccc3n4-c3ccccc3)nc2c1)NC(=O)OC(C)(C)C (stereo not given): 0.58
- N#C/C=C/c1ccc2ccc3cccc4ccc1c2c34: 0.53
- CC1=N/C(=C\c2cccc(N(C)C)c2)C(=O)N1C: 0.46
- C/C=C/c1ccc(OC)c(OC)c1: 0.35
- COC(=O)c1c(C(=O)OC)c2ccc(C)nn2c1C: 0.348
- Cc1ccc2ccc3cccc4ccc1c2c34: 0.34
- CCN(CC)c1ccc2cc(-c3nc4ccccc4s3)c(=O)oc2c1: 0.57
- CN(C)c1ccc(C=C/C=C/C=C/c2ccc(C#N)cc2)cc1: 0.072
- CCCCCCC(CCCCCC)N1C(=O)c2cccc3c(-c4ccc([Si](C)(C)C)cc4)ccc(c23)C1=O: 0.14

* * *

experiment-description: photoluminescence quantum yield (fraction); solvent given as SMILES
particulars: in CS(C)=O
Entries are grouped by photoluminescence quantum yield into these classes: L (below 0.2), M (0.2 to below 0.5), H (0.5 or more)

- CCN(CC)c1ccc2cc(-c3cc(SC)c(C#N)c(=O)o3)c(=O)oc2c1: H
- CCN(CC)c1ccc2cc(/C=C/C(=O)c3cc4ccc(N(CC)CC)cc4oc3=O)c(=O)oc2c1: L
- CCCCN1\C(=C/C=C/C=C/C2=[N+](CCCC)c3ccc4ccccc4c3C2(C)C)C(C)(C)c2c1ccc1ccccc21: M
- COc1ccc(C#Cc2ccc(C#N)cc2)cc1: L
- CCN(CC)c1ccc2c(c1)oc(=O)c1c(=O)oc3cc(Br)ccc3c12: M
- c1ccc(-c2nc(-c3ccc(-c4nc(-c5ccccc5)c(-c5ccccc5)[nH]4)cc3)[nH]c2-c2ccccc2)cc1: H
- Cc1cc(C#Cc2ccccc2)c2ccc3c(C#Cc4ccccc4)cc(C#Cc4ccccc4)c4ccc1c2c43: H
- c1ccc(C2CCN3COc4c5ccccc5c5c6c7c(c2c3c46)C(c2ccccc2)CCN7CO5)cc1 (stereo not given): L
- CCN1c2ccc(/C=N/Nc3ccccn3)cc2Sc2cc(-c3cccc4ccccc34)ccc21: M
- COc1cc(OC)cc(-c2ccc(-c3ccc(C#N)s3)s2)c1: L
- Cc1ccc(-c2nc3sc4ccccc4c3s2)cc1: H
- CCOC(=O)C1=C(N)n2c(=O)c3ccccc3c(=O)n2C1c1ccc(C)cc1 (stereo not given): L
- [C-]#[N+]c1ccc(-c2ccc(NC)cc2)cc1: H
- COC(=O)C(Cc1ccc2oc(-c3ccc4c(c3)c3ccccc3n4-c3ccccc3)nc2c1)NC(=O)OC(C)(C)C (stereo not given): H
- CCN1c2ccc(/C=N/Nc3ccccn3)cc2Sc2cc(-c3ccccc3)ccc21: M
- CN(C)c1ccc2nc(/C=C/c3cc4c5c(c3)CCCN5CCC4)c(=O)oc2c1: L
- Cc1cccn2c1cc1c3ccccc3nc(-c3ccco3)c12: M
- F[B-]1(F)N2C(=Nc3cccc4cccc2c34)c2cccc[n+]21: L

* * *

experiment-description: photoluminescence quantum yield (fraction); solvent given as SMILES
particulars: in ClCCl
# reported photoluminescence quantum yield; entries follow
quantity-kind: photoluminescence quantum yield

• CCCCCCc1ccc(-n2c3[n+](c4c5ccccc5c5ccccc5c42)[B-](C)(C)c2ccc4ccccc4c2-3)cc1 = 0.08
• CCCCCCCCCCCCC(CCCCCCCCCC)Cn1c2cc(/C=C/C=C(C#N)C#N)c3cccc4c5cccc6c(/C=C/C=C(C#N)C#N)cc1c(c65)c2c34 (centres undefined) = 0.067
• CC1CCC(=CS/C=C/c2ccc(/C=C/SC=C3CCC(C)CC3)cc2)CC1 (centres undefined) = 0.027
• COc1ccc(C#Cc2nc3ccccc3nc2-c2ccn(-c3ccccc3)c2)cc1 = 0.24

* * *

experiment-description: photoluminescence quantum yield (fraction); solvent given as SMILES
particulars: in ClC(Cl)Cl
quantity-kind: photoluminescence quantum yield

• CCCCCCc1ccc(-n2c3c4cccc(OC)c4nc(-c4ccc(C)cc4)c3c3c2c2c(-c4ccc(C)cc4)nc4c(OC)cccc4c2n3-c2ccc(CCCCCC)cc2)cc1 = 0.02
• CC(C)[Si](C#Cc1c2c(=O)c3ccccc3c2c(C#C[Si](C(C)C)(C(C)C)C(C)C)c2c(=O)c3ccccc3c12)(C(C)C)C(C)C = 0.1
• COC(=O)C(Cc1ccc2oc(-c3ccc(N(c4ccccc4)c4ccccc4)cc3)nc2c1)NC(=O)OC(C)(C)C (stereo not given) = 0.88
• CC1=CC(C)=[N+]2C1=C(c1ccc(I)cc1)c1c(C)cc(C)n1[B-]2(F)F = 0.57
• C(=C\c1ccc(/C=C/c2ccc(N(c3ccccc3)c3ccccc3)cc2)c2nsnc12)/c1ccc(N(c2ccccc2)c2ccccc2)cc1 = 0.148
• CN(C)c1ccc2nc(-c3ccc(/C=N/c4ccccc4)cc3)sc2c1 = 0.12
• COc1ccc(-c2cc(C)nc(-c3ccc(-n4c5ccccc5c5ccccc54)cc3)n2)cc1 = 0.68
• CCCCCCN1C(=O)c2cccc3c(-c4ccc(Cl)s4)ccc(c23)C1=O = 0.18
• CCC1=C(C)C2C(c3ccc(-c4ccc(-c5nc6c7ccccc7c7ccccc7c6n5-c5ccc(C(C)(C)C)cc5)cc4)cc3)c3c(C)c(CC)c(C)n3[B-](F)(F)[N+]2=C1C (stereo not given) = 0.672
• COc1ccc(C#Cc2ccc(C#N)cc2)cc1 = 0.13

All figures here come from the Deep4Chem optical property database.
